Molecular target: T1, human MSLN-R2-his protein (human, UniProt Q13421 391-486)
T1 construct: also called human MSLN-R2 protein; hMSLN-R2-his; not shown: His tag
T1 sequence (Q13421 other isoform, or with tags, fused parts or gaps): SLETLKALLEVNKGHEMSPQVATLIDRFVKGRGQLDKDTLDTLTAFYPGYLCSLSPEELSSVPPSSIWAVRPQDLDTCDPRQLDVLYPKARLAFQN
Assay: ELISA, coated antigen; antibody 100 nM
Metric: OD450
Include the unit after the number when you answer.

OD450 lookup needed for S009-F6-76.1 (antibody, human IgG1, kappa, V domains shown, Human-murine chimeric antibody, human IgG1/kappa constant regions) VH: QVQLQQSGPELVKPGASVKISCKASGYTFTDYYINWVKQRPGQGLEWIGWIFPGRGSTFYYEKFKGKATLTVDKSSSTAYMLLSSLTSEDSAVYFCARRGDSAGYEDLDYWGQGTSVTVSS VL: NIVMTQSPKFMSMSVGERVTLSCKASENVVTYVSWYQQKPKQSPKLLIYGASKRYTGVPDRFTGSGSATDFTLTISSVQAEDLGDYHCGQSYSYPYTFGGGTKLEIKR , thanks. 0.33 OD450
